Overview of reported OD 650 nm (mean ± sd) across a group of compounds:
Molecular target: TLR9 (Homo sapiens)
Construct: expressed in transfected cells; host or cells: HEK293
Sequence (Q9NR96 26-1032): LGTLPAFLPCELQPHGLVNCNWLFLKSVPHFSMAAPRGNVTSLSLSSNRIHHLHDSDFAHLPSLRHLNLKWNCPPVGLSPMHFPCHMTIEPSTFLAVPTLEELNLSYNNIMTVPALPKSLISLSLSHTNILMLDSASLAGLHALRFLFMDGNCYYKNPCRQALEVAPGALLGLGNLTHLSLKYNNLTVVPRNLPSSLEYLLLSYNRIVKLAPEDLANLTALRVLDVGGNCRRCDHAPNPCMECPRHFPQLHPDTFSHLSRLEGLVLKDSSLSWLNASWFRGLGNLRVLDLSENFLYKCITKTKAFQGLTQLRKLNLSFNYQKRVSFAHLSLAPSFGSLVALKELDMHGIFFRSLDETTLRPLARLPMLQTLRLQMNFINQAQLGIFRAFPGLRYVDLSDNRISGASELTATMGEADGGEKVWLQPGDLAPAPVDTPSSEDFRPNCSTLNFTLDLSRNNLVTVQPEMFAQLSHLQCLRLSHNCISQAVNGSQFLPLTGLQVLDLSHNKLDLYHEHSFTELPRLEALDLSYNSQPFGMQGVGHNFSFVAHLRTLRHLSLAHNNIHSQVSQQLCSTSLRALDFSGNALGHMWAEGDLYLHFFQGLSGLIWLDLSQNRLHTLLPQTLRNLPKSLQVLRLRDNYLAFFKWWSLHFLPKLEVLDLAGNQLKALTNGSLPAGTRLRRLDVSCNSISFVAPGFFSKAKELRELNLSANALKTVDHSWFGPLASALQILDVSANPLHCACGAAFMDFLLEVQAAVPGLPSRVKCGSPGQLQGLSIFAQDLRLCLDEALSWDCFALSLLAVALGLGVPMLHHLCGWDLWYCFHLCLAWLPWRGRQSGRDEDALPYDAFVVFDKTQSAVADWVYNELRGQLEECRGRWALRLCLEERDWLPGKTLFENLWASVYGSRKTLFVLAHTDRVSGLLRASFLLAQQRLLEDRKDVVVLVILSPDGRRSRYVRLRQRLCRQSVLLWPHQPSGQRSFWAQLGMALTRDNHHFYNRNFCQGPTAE
Assay: TLR9 screening of (+)-morphinan library, SEAP reporter in HEK293 cells expressing TLR9
Format: cell-based
Conditions: 100 nM; activator ODN2006; control (no activator) 0.14, activator 1.42 OD
Method: The secreted alkaline phosphatase reporter is under the control of a promoter inducible by the transcription factor NF-κB. […] In a 96-well plate (200 μL total volume) containing 50,000 cells/well, 20 μL of each sample compound was added to wells, in triplicate, followed by a 30 minute incubation at 37° C. and 5% CO2. […] After a 16-20 hr incubation period, the OD at 650 nm was read on a Beckman Coulter AD 340C Absorbance Detector. […]
observable: OD 650 nm (mean ± sd) (OD)

{"columns": ["compound", "val"],
 "data": [
  ["C=CCN1CC[C@@]23CC(=O)CCC2C1Cc1ccc(OC)c(O)c13 (some centres unmarked)", 1.14],
  ["C=CCN1CC[C@@]23c4c5ccc(OC)c4O[C@@H]2C(=C)CC[C@]3(O)[C@@H]1C5", 1.20],
  ["C=CCN1CC[C@@]23c4c5ccc(OC)c4O[C@@H]2C(NC(C)=O)CC[C@@H]3[C@@H]1C5 (some centres unmarked)", 1.29],
  ["COC1=CC=C2[C@@H]3Cc4ccc(OC)c5c4[C@]2(CCN3CC2CC2)[C@@H]1O5", 1.14],
  ["COc1cc(Br)c2c(c1OC(C)=O)[C@@]13CCN(CC4CC4)C(C2)C1CCC(=O)C3 (some centres unmarked)", 1.19],
  ["C=CCN1CC[C@@]23c4c5ccc(OC)c4OC2C(O)CCC3C1C5 (some centres unmarked)", 1.19],
  ["COc1cc(-c2ccoc2)c2c3c1O[C@@H]1C(=O)CCC4C(C2)N(CC2CC2)CC[C@]341 (some centres unmarked)", 1.08],
  ["C=CCN1CC[C@@]23c4c5ccc(OC)c4OC2C(OC(C)=O)CC[C@@H]3C1C5 (single isomer, unassigned) [II-94b]", 1.17]
]}
